System: NCI-H2170
Test: relative viability (nuclei count vs DMSO), 5 days (fraction); higher = more cells survive
Conditions: first compound 0.006325 µM
Known relative viability of a selection of molecules

- molecule: "CCNC(=O)c1noc(-c2cc(C(C)C)c(O)cc2O)c1-c1ccc(CN2CCOCC2)cc1 [Luminespib] + CC(=O)c1c(C)c2cnc(Nc3ccc(N4CCNCC4)cn3)nc2n(C2CCCC2)c1=O [Palbociclib] (partner 0.5 µM)"
  relative viability: 0.383
- molecule: "CCNC(=O)c1noc(-c2cc(C(C)C)c(O)cc2O)c1-c1ccc(CN2CCOCC2)cc1 [Luminespib] + O=C(c1cc(Cc2n[nH]c(=O)c3ccccc23)ccc1F)N1CCN(C(=O)C2CC2)CC1 [Olaparib] (partner 8 µM)"
  relative viability: 0.539
- molecule: "CCNC(=O)c1noc(-c2cc(C(C)C)c(O)cc2O)c1-c1ccc(CN2CCOCC2)cc1 [Luminespib] + N=C(N)NC(=N)NCCc1ccccc1 [Phenformin] (partner 250 µM)"
  relative viability: 0.398

---

compounds and their reported relative viability
System: ChaGo-K-1
Experiment: relative viability (nuclei count vs DMSO), 5 days (fraction); higher = more cells survive
Conditions: first compound 0.2 µM
outcome-measure: relative viability

- compound: "CCNC(=O)c1noc(-c2cc(C(C)C)c(O)cc2O)c1-c1ccc(CN2CCOCC2)cc1 [Luminespib] + Cc1nc(Nc2ncc(C(=O)Nc3c(C)cccc3Cl)s2)cc(N2CCN(CCO)CC2)n1 [Dasatinib] (partner 0.075 µM)"
  outcome-measure: "relative viability"
  result: 0.143
- compound: "Cc1csc(=NC2CCCCC2)n1/N=C/c1ccc(O)c(O)c1O [MIM1] + Cc1nc(Nc2ncc(C(=O)Nc3c(C)cccc3Cl)s2)cc(N2CCN(CCO)CC2)n1 [Dasatinib] (partner 0.075 µM)"
  outcome-measure: "relative viability"
  result: 0.594
- compound: "Cc1csc(=NC2CCCCC2)n1/N=C/c1ccc(O)c(O)c1O [MIM1] + Nc1nc2[nH]cc(CCc3ccc(C(=O)N[C@@H](CCC(=O)O)C(=O)O)cc3)c2c(=O)[nH]1 [Pemetrexed] (partner 0.2 µM)"
  outcome-measure: "relative viability"
  result: 0.255
- compound: "CCNC(=O)c1noc(-c2cc(C(C)C)c(O)cc2O)c1-c1ccc(CN2CCOCC2)cc1 [Luminespib] + CC1(C)CCC(c2ccc(Cl)cc2)=C(CN2CCN(c3ccc(C(=O)NS(=O)(=O)c4ccc(N[C@H](CCN5CCOCC5)CSc5ccccc5)c(S(=O)(=O)C(F)(F)F)c4)cc3)CC2)C1 [Navitoclax] (partner 0.5 µM)"
  outcome-measure: "relative viability"
  result: 0.311
- compound: "Cc1csc(=NC2CCCCC2)n1/N=C/c1ccc(O)c(O)c1O [MIM1] + CC(=O)c1c(C)c2cnc(Nc3ccc(N4CCNCC4)cn3)nc2n(C2CCCC2)c1=O [Palbociclib] (partner 0.5 µM)"
  outcome-measure: "relative viability"
  result: 0.951
- compound: "CCNC(=O)c1noc(-c2cc(C(C)C)c(O)cc2O)c1-c1ccc(CN2CCOCC2)cc1 [Luminespib] + C[C@@H](Oc1cc(-c2cnn(C3CCNCC3)c2)cnc1N)c1c(Cl)ccc(F)c1Cl [Crizotinib] (partner 1 µM)"
  outcome-measure: "relative viability"
  result: 0.301
- compound: "CN1CCN(CCOc2cc(OC3CCOCC3)c3c(Nc4c(Cl)ccc5c4OCO5)ncnc3c2)CC1 [Saracatinib] + Nc1ncn([C@H]2C[C@H](O)[C@@H](CO)O2)c(=O)n1 [Decitabine] (partner 2 µM)"
  outcome-measure: "relative viability"
  result: 0.427
- compound: "CCNC(=O)c1noc(-c2cc(C(C)C)c(O)cc2O)c1-c1ccc(CN2CCOCC2)cc1 [Luminespib] + NC(=O)Nc1cc(-c2cccc(F)c2)sc1C(=O)N[C@H]1CCCNC1 [AZD7762] (partner 0.2 µM)"
  outcome-measure: "relative viability"
  result: 0.172
- compound: "Cc1csc(=NC2CCCCC2)n1/N=C/c1ccc(O)c(O)c1O [MIM1] + O=C(c1cc(Cc2n[nH]c(=O)c3ccccc23)ccc1F)N1CCN(C(=O)C2CC2)CC1 [Olaparib] (partner 8 µM)"
  outcome-measure: "relative viability"
  result: 0.399
- compound: "CCNC(=O)c1noc(-c2cc(C(C)C)c(O)cc2O)c1-c1ccc(CN2CCOCC2)cc1 [Luminespib] + CC(C)C[C@H](NC(=O)[C@H](Cc1ccccc1)NC(=O)c1cnccn1)B(O)O [Bortezomib] (partner 0.002 µM)"
  outcome-measure: "relative viability"
  result: 0.294
- compound: "CCNC(=O)c1noc(-c2cc(C(C)C)c(O)cc2O)c1-c1ccc(CN2CCOCC2)cc1 [Luminespib] + Nc1ncn([C@H]2C[C@H](O)[C@@H](CO)O2)c(=O)n1 [Decitabine] (partner 2 µM)"
  outcome-measure: "relative viability"
  result: 0.535
- compound: "Cc1csc(=NC2CCCCC2)n1/N=C/c1ccc(O)c(O)c1O [MIM1] + N=C(N)NC(=N)NCCc1ccccc1 [Phenformin] (partner 250 µM)"
  outcome-measure: "relative viability"
  result: 0.521
- compound: "CN1CCN(CCOc2cc(OC3CCOCC3)c3c(Nc4c(Cl)ccc5c4OCO5)ncnc3c2)CC1 [Saracatinib] + CCNC(=O)c1noc(-c2cc(C(C)C)c(O)cc2O)c1-c1ccc(CN2CCOCC2)cc1 [Luminespib] (partner 0.01 µM)"
  outcome-measure: "relative viability"
  result: 0.388
